Experiment: soluble on expression in E. coli; label from the status in PepcDB or PDB records

Residue String	soluble on expression in E. coli
TPQQRRLSMARRTAASLGYNECVSYTFIDQASAALFGGGTDATMLENPISSEMSHMRPDLLPGLLAAAARNQARGFADLALFEAGPVFHGGEPGEQRAQIAGLLVGRTGPKDVHGAARAVDLYDAKADAEAVLAAMGAPAKVQILRDGDGWWHPGRHGRICLGPKKVLGVFGELHPRVLQAMDVKGPAVAFVLWPEEVPLPRKSGTTRAALAL	not soluble
MGSDKIHHHHHHMKYREILEAAVRAPSGENCQPWRFVMEGDVIRIFNIPDQDTSLFNLHQRASYVAHGALLENLSIAAPAFGYAPDISLFPDSHVPNLVAAVRMTEGPSFDDSLYPYIPKRCTNRKRYNGGALSAAESQTLLSVAERVPGGKVALTGSVQDKAEVAEVNALNDRLVFENEHLHAFLFEHVRWSDAEARERGDGLDIKTLELAPPDSLAFPLLKSWPLVDFLKNFGVPRIIAGSARKLALSAAAIGVVSVPGKGDKDCIAAGRLIERVWLEATKLGLSFQLMTGITLLMRRVLDGETENISSQHGELIKKAYGTLANRFGVEDGSLFIMFRVGRCGPPSVYSMRYPIDKVIDAP	not soluble
MNMKTIEDVFIHLLSDTYSAEKQLTRALAKLARATSNEKLSQAFHAHLEETHGQIERIDQVVESESNLKIKRMKCVAMEGLIEEANEVIESTEKNEVRDAALIAAAQKVEHYEIASYGTLATLAEQLGYRKAAKLLKETLEEEKATDIKLTDLALNNVNKKAENKA	soluble
MSDAFLSSIKNRRTIYALDKQLPVSQEKIVELVKEAVSHSPSAFNSQSSRVVVLFGAEHEQFWNIAKDELKKIVPADAFAATETKLNSFAAGAGTVLFFEDQTVVRQLQEQFALYADNFPVWSEQASGMAQFAVWTALAEHKVGASLQHYNPLVDAQTHKTWNLPESWKLRAQMPFGAIAAPAGEKAFIAESERFKVFGN	not soluble
MGSDKIHHHHHHMTVELKNILDLEKWEKLQESLALSTRLAIILVDYKGRPVTKHSQVQPFCQLVRHSPELSKLCEKCDARGGLEAVRTGQPFIYRCHFNIVDMAIPIIVDDQYVGAIMAGEVLLEDHQEELEQVLTMNDAFIQEFLVTHQELYQQYPVLELADLEKSATLIADLSQYIISEAIKKDYLINTYKQSLQISSRKEELEPLNMIQKDIQQTLLTAQLTPSSAYQTKNKQLQPVLDALWENKSLRLNLQELADLVHLTPTYLSRLLKEEFGIPFSQFYRQLKITWAKQLLLETDKTIAQISEDLGFVEDSYFVRIFKQETGETPLKYRKRKNRA	not soluble
MQVLSMIFTREILEEAINYGLTKNTTSFTRIKAGIYKTEREKHRDLPSHYIYTACEDASERLDSFNKLKKRGRSYTDRPSVRRVTVHLDDHLWKFSLNVISIATKRGRVCISPIFPKIFWRYYNDNWLIASGARFKLLKGNVVEFFIVFKKDVKSYDPRGFIPVDLNEDSVSVLINGKPILLETNTRMITLGYEYKRRSITNGRSTKDREVRRKLRERDKKLDVRRKFAKLIVKEAFGSRSAIVLEDLPRGVPEHMVKGVKDKQLRLRIYRSAFSSMKNAIVEKAREFGVPVILVDPSYTSSICPVHGSKIIYQPDGGSAPRVGVCGKGGERWHRDVVALYNLRKRAGDVSPVPLGSKESHDPPVVQVVEGLEHHHHHH	soluble

###

Test: soluble on expression in E. coli; label from the status in PepcDB or PDB records
Property Name: soluble on expression in E. coli

Residue String	Property Name	Reading
MKTEEMKFINESEFKKLKHYFEQKNTTSSLVLLVALTTGGRFSEIAKLKREDLDIKNNKIHLRGTKTETSDRIISIDTVTMKRIQSFIDSRPTNISGYIFTVDGKTITNAAVNKVLRKACANLNIKEITIHSLRHSFCSILIHHGFSILYISKHLGHSNPATTQSIYSHLLQETYEREDELEHHHHHH	soluble on expression in E. coli	not soluble
MSKEDNNAVVGHQPATKVGGRRIADHGNQRAQNSTNSSDAVREAMDFDLPAKMEKAYPTAAVKQVHEKPTPAIQPAHYNRATGNGQVRNIPQKQNH	soluble on expression in E. coli	not soluble
SQILDRKGRLIANIYDKEFRFYARFEEIPPRFIESLLAVEDTLFFEHGGINLDAIMRAMIKNAKSGRYTEGGSTLTQQFVKNMVLTREKTLTRKLKEAIISIRIEKVLSKEEILERYLNQTFFGHGYYGVKTASLGYFKKPLDKLTLKEITMLVALPRAPSFYDPTKNL	soluble on expression in E. coli	not soluble
MNDLKSKSNIKLMKRVLTTYELRKYLKKYFCLTLDNYLVLAYLDVFKNDEGKYFMRDIISYIGIDQSRIVKSVKDLSKKGYLNKCRDPHDSRNVIIVVSVKQHNYIKNLLSEININET	soluble on expression in E. coli	not soluble

###

Experiment: soluble on expression in E. coli; label from the status in PepcDB or PDB records

Residue String	soluble on expression in E. coli
MGSDKIHHHHHHMKLKNDELTVEFKPEGATISSIRDRDGVEYLWQGNPEYWGGQAPVLFPICGSLRNDGATFQVGEKTISGSMPRHGIVRKRTFDLVKHTENEIQFRILSDDEMLKQYPFPFELQLTYRLDGKRLETEYAIRYLGELDAMPFFIGGHPGFNCPLLEDEAFDDYYLEFELEEDCTIPESFPETGLLDFSKRQPMLSKTRILDLNYELFQHDALTFDNLKSRKVALKTKNHQKGLKVSFEDFPFLVVWTTTNKGPFIALEPWSGLSTSLTETDNFIDKTHVTYVEKGEVSRKAFTIEIC	not soluble
MLTSGETVNVVLDFTKCTSTDDQKKPGMMRGDLRISAFLIRPDNSISFSDEHFTITTMDKEPIYQFLRYSLKPDETASFTMTTLSMPEKAHKGEVIAYNCKFATALEHHHHHH	not soluble

###

Assay: soluble on expression in E. coli; label from the status in PepcDB or PDB records
Property Name: soluble on expression in E. coli

Residue String	Reading
MAKRKLTQNQTRRIQSNNAKTLHRHKKKEIEWSDEMLGESQEGVVVTRYSIHADVENEQGEIYRCNLRRTLSSLVVGDKVVWRKGNEQLQGVSGVIEAIHPRENEISRPDYYDGLKPIAANIDRIIIVSAVLPTLSLNIIDRYLVVCEIAGITPLIVLNKVDLLAQEQRQEIEDQLKIYQDIGYEILMISAKSGENMEKLTALLAQGTAIFVGQSGVGKSSLINHILPSVNAQVGDVSETSGLGQHTTTSSRLYHLPQGGNLIDSPGIREFGLWHLDAEQITKGYREFQYVLGTCKFRDCKHLSDPGCALREAVEQGKISPVRYDNYHRLIESLSETKSQRHFSLV	not soluble
MNMVGHSYGNIAIVYYMLQHGSDTSLPKLVKQVDIAGHFNGIIGMDEPEENSLDGEGKPTSMTGSYEELLSLGDNYPQGQVEVLNIYGNTGKESDERVTNLSSQSLAYLLKGHVKSYQEKKITGLNGQHSKLHETTLVDKPLNAFLWGK	not soluble
MRSLADFEFNNAPLCDGMILASEMIRLDFPTQFVYDELERLVSLAQEEISQLLSQDEQLEKLLALFYGEWGFTDSRGVYRLSDALWLDKVLKKRQGSAVSLGAILLWIANRLDLPLVPVIFPTQLILRIESLEGEMWLINPFNGETLDEHTLEVWLKGNISPVAELFNEDLDEADNAEVIRKLLDTLKSSLMEERQMELALRVSEALLQFNPEDPYEIRDRGLIYAQLECEHVALTDLSYFVEQCPEDPISEMIRAQINTIAHKQIVLHLEHHHHHH	not soluble
METPETRFCKESKVVKTSRVFPLDTNNHNTLFGGKLMSYIDDIASISAARHCRRETVTASMDSVDFLKPIGQKDSVCLESYVTWVGTSSMEVFVKVIKEHLMTGERELAATSFLTFVALDSNGKPVPVPRVVPETEEEIMLHNTAVQRANERKNRKRHSQALANALGTDKPWVNVKPKTLEHHHHHH	not soluble
MQARYRDWGIFKYWFRAVEKNAPWVHKIFIITDHQNPKFLNKHSSKIVFVNHEDFIPNEYLPTFNSDAIEIGIQNIPGLSEHFVFFNDDMFINKPVKPIDFFDGNIPKDSGVMGPQFPISNSITHITVNNMEIINKYFLKKKVLRKYFFKFFNWRYGKDNIRTATALPWQVFIGFYDMHIPISFLKSTFDNVWSEVGNLLSQNYQHRFRSQLDYSVWLMRYFQLASGNFFPRRTRFGKYYNLGEQTEEIINDIKTGKHALIVLNDQESINDYPYEKKLVNEVFERRYSRLEHHHHHH	soluble
MMSMIEKLKKFTQIPGISGYEERIREEIIREIKDFADYKVDAIGNLIVELGEGEERILFMAHMDEIGLLITGITDEGKLRFRKVGGIDDRLLYGRHVNVVTEKGILDGVIGATPPHLSLERDKSVIPWYDLVIDIGAESKEEALELVKPLDFAVFKKHFSVLNGKYVSTRGLDDRFGVVALIEAIKDLVDHELEGKVIFAFTVQEEVGLKGAKFLANHYYPQYAFAIDSFACCSPLTGDVKLGKGPVIRAVDNSAIYSRDLARKVWSIAEKNGIEIQIGVTGGGTDASAFQDRSKTLALSVPIKYLHSEVETLHLNDLEKLVKLIEALAFEL	soluble
